assay_info: collision cross section of modified peptide (TIMS, N2, iRT-aligned); higher = larger / more extended gas-phase ion
condition_set: charge state: 2; modification: Citrullination (R)
Exercise: for every item that follows, state its recorded collision cross section.
Please reply with the bare figure in Å² and do not write the unit itself.

Request: Item GRGGPGPAQR [_GR(Citrullination (R))GGPGPAQR_] has what recorded collision cross section?
Response: 319.56

Request: Form field: reported collision cross section of DFAFYNPRLQGK [_DFAFYNPR(Citrullination (R))LQGK_]
Response: 400.16

Request: Item under review: YGRGQLNYPLPDFSK [_YGR(Citrullination (R))GQLNYPLPDFSK_] . Reported collision cross section?
Response: 439.93

Request: Suppose we examine the sequence LGILPVGRGK [_LGILPVGR(Citrullination (R))GK_] ; what collision cross section value has been reported?
Response: 340.52

Request: For the sequence GRGTGEAEEEYVGPR [_GR(Citrullination (R))GTGEAEEEYVGPR_] , what collision cross section is on record?
Response: 411.48

Request: Looking for the measured collision cross section of HLRGHGPQPPLR [_HLR(Citrullination (R))GHGPQPPLR_] , can you help?
Response: 393.67

Request: I have this sequence here, VLATQPGPGRGR [_VLATQPGPGR(Citrullination (R))GR_] , and I need its recorded collision cross section.
Response: 364.01

Request: Reported collision cross section, sequence GFGRGGAESHTFK [_GFGR(Citrullination (R))GGAESHTFK_] : ____
Response: 413.94

Request: collision cross section for SGGRGVSVSSAR [_SGGR(Citrullination (R))GVSVSSAR_] ?
Response: 351.18

Request: Reported collision cross section, sequence PARGLYSR [_PAR(Citrullination (R))GLYSR_] : ____
Response: 324.52

Request: Which measured collision cross section value corresponds to GRGGAESHTFK [_GR(Citrullination (R))GGAESHTFK_] ?
Response: 374.44

Request: If you can, please state the reported collision cross section value of YSSSSIPEPFGSRGSPR [_YSSSSIPEPFGSR(Citrullination (R))GSPR_] .
Response: 439.28

Request: What does the record list as collision cross section for LLRGVGGSHGR [_LLR(Citrullination (R))GVGGSHGR_] ?
Response: 372.77

Request: Need collision cross section of RGATPPAPPR [_R(Citrullination (R))GATPPAPPR_] , thanks.
Response: 332.88

Request: Consider the sequence shown here: FSHSVQNSERGK [_FSHSVQNSER(Citrullination (R))GK_] What is its recorded collision cross section?
Response: 390.38

Request: Entry LGTTPSVYGGAGGRGIR [_LGTTPSVYGGAGGR(Citrullination (R))GIR_] has what collision cross section?
Response: 423

Request: For the sequence GGPGGELPRGPQAGLGPR [_GGPGGELPR(Citrullination (R))GPQAGLGPR_] , what collision cross section is on record?
Response: 413.18

Request: Entry under review: GFLQPPPLRQPR [_GFLQPPPLR(Citrullination (R))QPR_] . Reported collision cross section?
Response: 391.62

Request: # input sequence: GGFQNRGGGSGGGGNYR [_GGFQNR(Citrullination (R))GGGSGGGGNYR_] ; wanted: its collision cross section
Response: 403.21

Request: If you can, please state the reported collision cross section value of ANAIGRGAK [_ANAIGR(Citrullination (R))GAK_] .
Response: 313.03
